Test: NCI Yeast Anticancer Drug Screen. Data for the mlh1 rad18 strain (AID 175)
Settings: S. cerevisiae mlh1 rad18 strain growth inhibition; at 5.0 µM (retest, dose inferred, filed as 0.5); stronger effect = higher value
Compounds without any hit were thinned out: in the full panel of roughly 79,000, 15% have a hit.
Assign 1.0 to entries whose growth inhibition meets or exceeds 40%; assign 0.0 to the rest.

As a guide, the following entries are already answered.
| MOLECULE | GROUP |
| --- | --- |
| COc1ccc(NC(=S)N/N=C/c2cccc(C)n2)cc1 | 0.0 |
| CCC[CH2][Sn]([S][Sn]([CH2]CCC)([c]1ccccc1)[c]1ccccc1)([c]1ccccc1)[c]1ccccc1 | 1.0 |
| Cc1ccc(O)cc1CCCCO | 0.0 |
| CCCCCCCCCC(=O)CC(=O)c1ccc(O)cc1O | 1.0 |

hey, is growth inhibition for this one >= 40%? CCC1(C)C(C#N)(C#N)C1(C#N)C#N
0.0

hey, is growth inhibition for this one >= 40%? NCC1CCNCC1
0.0

hey, is growth inhibition for this one >= 40%? CSc1ncnc2nn(C3OC(COC(=O)c4ccccc4)C(OC(=O)c4ccccc4)C3OC(=O)c3ccccc3)nc12 (centres undefined)
0.0

hey, is growth inhibition for this one >= 40%? CC(C)C1=C(O)c2ccccc2C(=O)C1=O
0.0
